System: Hs-578T
Test: NCI tumour cell line growth inhibition, 48 h
Calls of active or inactive are those of the source. Rule as the data show it: active = GI50 up to about 1.1 µM and inactive = higher.
reported.property: GI50

Guide cases for GI50, answers given:
compound: CCCCCCCCCCCCCCCCCCN(C)CC(COP(=O)([O-])OCC[N+](C)(C)C)OC (stereo not given)
GI50: > 46.1 µM (inactive)
--
compound: N#CC(NNC(=O)c1ccccc1O)c1c(O)ccc2ccccc12 (stereo not given)
GI50: 17.3 µM (inactive)
--
compound: O=C1Nc2ccccc2/C1=C1/Nc2ccccc2/C1=N\OCCOC1OCC(O)C(O)C1O (stereo not given)
GI50: > 100 µM (inactive)

Would you mind giving GI50 for every compound in the list below?
1. O=C(O)C1OC1(c1cccc(Cl)c1)c1ccccc1Cl (stereo not given)
2. O=S1(=O)C[C@H](NCc2ccccc2)[C@H](NCc2ccccc2)C1

25.4 µM (inactive)
73.3 µM (inactive)

###

Kindly state GI50 for each of the entries shown.
System: SK-OV-3
Assay: NCI tumour cell line growth inhibition, 48 h
Calls of active or inactive are those of the source. No stated cut-off is given here; in the data, active = GI50 up to about 1.1 µM and inactive = higher.

Here is how some compounds turned out for GI50.
compound: O=C(Nc1ccc2oc(=O)c(C(=O)O)cc2c1)Oc1ccccc1
assayed.target: SK-OV-3
GI50: > 100 µM (inactive)

compound: O=C1c2c(c3c4ccccc4n4c3c3c2c2ccccc2n3C/C=C\C4)C(=O)N1Cc1ccccc1
assayed.target: SK-OV-3
GI50: > 100 µM (inactive)

Batch request: GI50 per item, same order as input.
1. O=C(NCCO)Nc1c(C(F)(F)F)cc(-c2ccccc2)[nH]c1=O
2. CC(C)=CCC[C@@H](C)C1=C(O)C(=O)C(C)=C(N)C1=O
3. COC(=O)c1cccc2c3ccccc3c3ccccc3c12
4. CCOP(=O)(OCC)C(C)(CC)NC (stereo unspecified)
5. O=C(O)CN1CCN2CCCCCN(CC1)CCN(CC(=O)O)CC2

> 100 µM (inactive)
27.3 µM (inactive)
37.2 µM (inactive)
> 100 µM (inactive)
> 100 µM (inactive)

###

Tested on: MCF7
Test: NCI tumour cell line growth inhibition, 48 h
Calls of active or inactive are those of the source. Rule as the data show it: active = GI50 up to about 1.1 µM and inactive = higher.
reported.property: GI50

compound: C=C=C(C)[Si](C)(C)C
assayed.target: MCF7
result: > 100 µM (inactive)
--
compound: O=C1Nc2ccccc2/C1=C\c1c(Cl)n(-c2ccccc2)c2ccccc12
assayed.target: MCF7
result: 3.44 µM (inactive)
--
compound: Cc1ccc(S(=O)(=O)N/N=C2/CCC3(O)CC2(C)CCC2[C@H]3CC2(C)C)cc1 (stereo partly specified)
assayed.target: MCF7
result: 35.5 µM (inactive)
--
compound: COc1ccccc1NC(=O)C(=O)C(C#N)CC(C)(C)C=O (stereo unspecified)
assayed.target: MCF7
result: > 100 µM (inactive)
--
compound: CCOC(=O)c1nc2ccc(C(F)(F)F)cc2nc1Nc1ccc(OC)c(OC)c1
assayed.target: MCF7
result: > 100 µM (inactive)
--
compound: Cc1ccnc(NC(=S)Nc2cccc(Cl)c2)c1
assayed.target: MCF7
result: > 100 µM (inactive)
--
compound: C[C@H](CCC1=NCCN1)[C@H]1CC[C@H]2[C@@H]3CC[C@@H]4C[C@H](O)CC[C@]4(C)[C@H]3C[C@H](O)[C@]12C
assayed.target: MCF7
result: 12.7 µM (inactive)
--
compound: CCCCCC(=O)Nc1[nH]cnc1C(N)=O
assayed.target: MCF7
result: > 100 µM (inactive)
--
compound: CCOC(=O)C1NCCc2c1[nH]c1ccccc21 (stereo unspecified)
assayed.target: MCF7
result: > 10 µM (inactive)
--
compound: CO/N=C(/C)c1cccc(Nc2nc3ccccc3c3[nH]c4ccccc4c23)c1
assayed.target: MCF7
result: 5.16 µM (inactive)

Would you kindly look at the next entry?
Item: Cc1nc2ccc(F)cc2c2c1CCS2 | GI50: 56.4 µM (inactive)
